src = patent US6972319B1

Measured pEC50 by item
Target: PACAP-R2 (Homo sapiens)
Construct: expressed in transfected cells; host or cells: CHO cells
Sequence (P32241 31-457): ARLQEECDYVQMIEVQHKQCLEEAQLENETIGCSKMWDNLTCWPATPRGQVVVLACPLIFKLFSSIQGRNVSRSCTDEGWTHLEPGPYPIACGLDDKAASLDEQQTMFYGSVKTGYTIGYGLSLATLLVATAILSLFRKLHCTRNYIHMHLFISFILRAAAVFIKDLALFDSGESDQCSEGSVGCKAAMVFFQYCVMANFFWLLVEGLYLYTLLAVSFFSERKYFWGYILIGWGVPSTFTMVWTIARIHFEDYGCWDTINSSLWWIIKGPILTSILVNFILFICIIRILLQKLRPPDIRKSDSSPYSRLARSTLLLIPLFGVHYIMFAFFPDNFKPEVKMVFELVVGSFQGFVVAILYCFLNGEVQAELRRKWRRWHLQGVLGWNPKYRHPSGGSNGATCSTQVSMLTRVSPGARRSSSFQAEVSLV
Experiment: Cyclic AMP SPA on CHO cells transfected with PACAP-R2
Assay type: cell-based
Conditions: cAMP SPA, concentration at which 50% of maximum PACAP27 activity is achieved, NA = no detectable activities, read-out: R2 EC50
pEC50: −log10 of the molar value. No end group written: not given here.
observation type: pEC50

{"residue sequence": "HSDAVFTDNYTRLRKQMAAKKYLNSIHNKR [Peptide R3P122]", "system tested": "PACAP-R2 (Homo sapiens)", "observation type": "pEC50", "modifier sign": "=", "quantitative result": 8.00}
{"residue sequence": "HSDAVFTDNYTRLRKQMAAKKYLNSIKNKN [Peptide R3P164]", "system tested": "PACAP-R2 (Homo sapiens)", "observation type": "pEC50", "modifier sign": "=", "quantitative result": 7.00}
{"residue sequence": "HSDAVFTDNYTRLRKQMAAKKYLNSIKNKG [Peptide R3P158]", "system tested": "PACAP-R2 (Homo sapiens)", "observation type": "pEC50", "modifier sign": "=", "quantitative result": 8.22}
{"residue sequence": "HSDAVFTDNYTRLRKQLAAKKYLNDIKKQ [Peptide R3P34]", "system tested": "PACAP-R2 (Homo sapiens)", "observation type": "pEC50", "modifier sign": "<", "quantitative result": 7.00}
{"residue sequence": "HSDAVFTDNYTRLRKQMAAKKYLNSIKNKI [Peptide R3P160]", "system tested": "PACAP-R2 (Homo sapiens)", "observation type": "pEC50", "modifier sign": "=", "quantitative result": 7.00}

----------
Biological target: PACAP-R2 (Homo sapiens, UniProt P32241)
Construct: expressed in transfected cells; host or cells: CHO cells
Assay: Cyclic AMP SPA on CHO cells transfected with PACAP-R2
Format: cell-based
Details: cAMP SPA, concentration at which 50% of maximum PACAP27 activity is achieved, NA = no detectable activities, read-out: R2 EC50
No end group written: not given here.
Measured EC50 by item
observation type: EC50 (nM)

{"substance": "HSDAVFTDNYTRLRKQMAAKKYLNSIKNKR [Peptide R3P65]", "observation type": "EC50", "modifier sign": "=", "quantitative result": 80}
{"substance": "HSDAVFTDNYTRLRKQMAAKKYLNSIRNRI [rR3P189]", "observation type": "EC50", "modifier sign": "=", "quantitative result": 1.3}
{"substance": "HSDAVFTDNYTKLRKQLAAKKYLNDILNGGT [Peptide R3P11]", "observation type": "EC50", "modifier sign": "=", "quantitative result": 10}
{"substance": "H-HSDAVFTDNYTRLRKQLAAKKYLNDIKKNQ [Peptide R3P35]", "observation type": "EC50", "modifier sign": ">", "quantitative result": 100}
{"substance": "HSDGIFTDSYSRYRKQMAVKKYLAKVL-NH2 [PAC25]", "observation type": "EC50", "modifier sign": "=", "quantitative result": 0.13}
{"substance": "HSDAVFTDNYTRLRKQMAAKKYLNSIKKK [Peptide R3P54]", "observation type": "EC50", "modifier sign": ">", "quantitative result": 100}
